# assay.comment: chemical genetic growth profiling, strain panel (AID 1159580);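 note: tested at 20 µM; growth read once vehicle control cultures reached saturation at 30 °C; 1 = growth at the plate median or of vehicle wells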
# condition.notes: S. cerevisiae deletion strains, growth OD, locus YEL061C, strain CIN8, stronger effect = lower value
Screen size: about 5,500 compounds; about 2,000 (36%) were called active. Inconclusive results (about 18%) are left out. The list shows a part of the results.
readout.kind: normalized growth

compound=CCOC(=O)c1cnc2cc(C)nn2c1C numeric_value=0.997
compound=CS(=O)(=O)c1ccc(C2=C(c3ccccc3)C(=O)OC2)cc1 numeric_value=0.984
compound="C=C1C([C@]2(C)C(CC(=O)OC)[C@@](C)(COC(C)=O)OC(=O)C[C@@H]2OC(C)=O)[C@@H](OC=O)[C@H](OC(=O)C(O)C(C)CC)[C@@]2(C)[C@H](c3ccoc3)CC(=O)C12O (some centres undefined)" numeric_value=1
compound="CCC(C)C(OC(C)=O)C(=O)OC1C(O)C2C3(C)C=CC(=O)C(C)(C)C3CC(OC(=O)C(O)C(C)C)C2(C)C23OC2CC(c2ccoc2)C13C (centres undefined)" numeric_value=1

###

# assay.comment: chemical genetic growth profiling, strain panel (AID 1159580);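 note: tested at 20 µM; growth read once vehicle control cultures reached saturation at 30 °C; 1 = growth at the plate median or of vehicle wells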
# condition.notes: S. cerevisiae deletion strains, growth OD, locus YJL187C, strain SWE1, stronger effect = lower value
The whole screen tested about 5,500 compounds, of which about 2,000 (36%) were called active. About 18% were inconclusive and are not listed. The list shows a part of the results.
readout.kind: normalized growth

compound="CN1CCc2cc3c(cc2[C@H]1C1OC(=O)c2c1ccc1c2OCO1)OCO3 (stereo partly specified)" readout_kind="normalized growth" numeric_value=0.986
compound=CC(C)(C)c1ccc(-c2nc(-c3cc(C(C)(C)C)c(O)c(C(C)(C)C)c3)cs2)cc1 readout_kind="normalized growth" numeric_value=1.01
compound=CC(=O)OC(C)(C)[C@@H]1Cc2cc3ccc(=O)oc3cc2O1 readout_kind="normalized growth" numeric_value=0.971
compound=COC1=CC(=O)C[C@@H](C)[C@]12Oc1c(Cl)c(OC)cc(OC)c1C2=O readout_kind="normalized growth" numeric_value=0.983
compound=NCCSSCCN readout_kind="normalized growth" numeric_value=0.993
compound=CCOc1ccc(/C=C(\C#N)c2cccc(Cl)c2)cc1 readout_kind="normalized growth" numeric_value=1.01

###

# assay.comment: chemical genetic growth profiling, strain panel (AID 1159580);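 note: tested at 20 µM; growth read once vehicle control cultures reached saturation at 30 °C; 1 = growth at the plate median or of vehicle wells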
# condition.notes: S. cerevisiae deletion strains, growth OD, locus YGR078C, strain PAC10, stronger effect = lower value
The campaign covered roughly 5,500 compounds. About 2,000 (36%) were called active. Inconclusive results (about 18%) are left out. The list shows a part of the results.
Labelling field: enter Condition met if recorded normalized growth is less than 1. Enter Condition not met if it equals or exceeds that cut-off.

compound=COc1cc2c(cc1OC)[C@@H]1C(=O)c3ccc(OC)c(CC=C(C)C)c3O[C@@H]1CO2 class_assignment="Condition not met"
compound=CCCc1cc(=O)c2ccc(O)cc2o1 class_assignment="Condition met"
compound="OCCN1C[C@@H](O)[C@@H](O)C(O)C1CO (stereo not given in full)" class_assignment="Condition not met"
compound=CCO/C=C1\SC(=S)N(CCc2ccccc2)C1=O class_assignment="Condition met"

###

# assay.comment: chemical genetic growth profiling, strain panel (AID 1159580);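 note: tested at 20 µM; growth read once vehicle control cultures reached saturation at 30 °C; 1 = growth at the plate median or of vehicle wells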
# condition.notes: S. cerevisiae deletion strains, growth OD, locus YKR026C, strain gcn3, stronger effect = lower value
The campaign covered roughly 5,500 compounds. About 2,000 (36%) were called active. Inconclusive results (about 18%) are left out. The list shows a part of the results.
readout.kind: normalized growth

compound="CC(=O)NC1SCCC1=O (stereo unspecified)" numeric_value=0.977
compound=CC(=O)OCC[N+](C)(C)C numeric_value=1.03
compound=CCOC(=O)C(C)(C)Oc1ccc(Cl)cc1 numeric_value=0.974
compound=C[N+](C)(C)CCOC(N)=O numeric_value=0.988
compound="COCCc1ccc(OCC(O)CNC(C)C)cc1 (stereo unspecified)" numeric_value=1
compound="Cc1cccc(C)c1OCC(C)N (stereo unspecified)" numeric_value=0.999
compound="CC(C[N+](C)(C)C)OC(N)=O (stereo unspecified)" numeric_value=1.02
compound=COC1=C(OC)C(=O)C(C/C=C(\C)CC/C=C(\C)CC/C=C(\C)CC/C=C(/C)CC/C=C(\C)CC/C=C(\C)CC/C=C(\C)CC/C=C(\C)CC/C=C(\C)CCC=C(C)C)=C(C)C1=O numeric_value=0.986
compound="CCOC(=O)C(=O)C1(C(=O)OCC)Oc2cc(OC)cc(OC)c2C(=O)C1c1ccccc1 (stereo unspecified)" numeric_value=0.932
compound=CC(=O)O[C@H]1[C@@H]2[C@@H](OC(=O)Cc3ccccc3)[C@@H](C)C[C@]2(OC(C)=O)C(=O)/C(C)=C/[C@H]2[C@H](CC[C@@]13CO3)C2(C)C numeric_value=0.982
compound="c1cncc(C2CCCCN2)c1 (stereo unspecified)" numeric_value=0.996
